# testedSystem: GABA-A receptor; alpha-1/beta-3/gamma-2 (Homo sapiens, UniProt P14867+P18507+P28472)
# Sequence (P14867 whole entry): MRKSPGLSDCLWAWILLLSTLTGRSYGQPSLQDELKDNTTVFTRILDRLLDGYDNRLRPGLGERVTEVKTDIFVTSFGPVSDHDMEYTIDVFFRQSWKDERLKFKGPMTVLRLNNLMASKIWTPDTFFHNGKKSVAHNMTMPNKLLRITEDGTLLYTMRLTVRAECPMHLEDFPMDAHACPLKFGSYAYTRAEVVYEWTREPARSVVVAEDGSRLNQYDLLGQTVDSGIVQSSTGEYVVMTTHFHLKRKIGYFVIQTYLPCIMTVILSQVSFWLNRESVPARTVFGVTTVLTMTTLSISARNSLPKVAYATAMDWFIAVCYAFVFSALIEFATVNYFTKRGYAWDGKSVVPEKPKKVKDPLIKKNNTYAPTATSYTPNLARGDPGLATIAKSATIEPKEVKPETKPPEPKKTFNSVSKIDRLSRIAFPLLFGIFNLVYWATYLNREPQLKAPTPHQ
# Sequence (P18507 whole entry): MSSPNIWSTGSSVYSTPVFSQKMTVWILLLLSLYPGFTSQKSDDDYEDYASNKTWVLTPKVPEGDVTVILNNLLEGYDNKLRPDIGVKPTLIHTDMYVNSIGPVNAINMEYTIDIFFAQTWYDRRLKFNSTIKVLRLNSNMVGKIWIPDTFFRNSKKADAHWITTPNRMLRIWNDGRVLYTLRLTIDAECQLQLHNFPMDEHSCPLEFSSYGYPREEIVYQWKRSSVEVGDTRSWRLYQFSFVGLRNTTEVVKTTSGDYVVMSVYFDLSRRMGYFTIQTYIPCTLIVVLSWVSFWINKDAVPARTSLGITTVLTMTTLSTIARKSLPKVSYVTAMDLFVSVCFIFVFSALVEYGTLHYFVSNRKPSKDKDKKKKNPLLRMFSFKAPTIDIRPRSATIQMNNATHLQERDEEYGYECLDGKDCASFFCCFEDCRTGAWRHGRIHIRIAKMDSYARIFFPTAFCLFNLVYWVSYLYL
# Sequence (P28472 whole entry): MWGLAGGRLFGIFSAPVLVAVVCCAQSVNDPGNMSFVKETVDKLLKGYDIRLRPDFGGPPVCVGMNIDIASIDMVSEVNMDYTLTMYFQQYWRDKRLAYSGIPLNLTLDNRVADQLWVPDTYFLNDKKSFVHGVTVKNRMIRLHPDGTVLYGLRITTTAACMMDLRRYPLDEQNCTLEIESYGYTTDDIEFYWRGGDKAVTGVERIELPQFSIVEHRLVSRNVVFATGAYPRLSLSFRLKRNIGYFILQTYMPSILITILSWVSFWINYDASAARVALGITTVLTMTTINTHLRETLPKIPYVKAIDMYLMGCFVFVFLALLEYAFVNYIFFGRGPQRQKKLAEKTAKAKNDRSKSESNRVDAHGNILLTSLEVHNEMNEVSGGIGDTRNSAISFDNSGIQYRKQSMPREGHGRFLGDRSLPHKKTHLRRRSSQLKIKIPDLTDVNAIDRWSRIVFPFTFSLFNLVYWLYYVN
# runDescription: Positive allosteric modulation of GABA-A alpha1beta3gamma2S receptor (unknown origin) expressed in Xenopus laevis oocytes assessed as increase in GABA-induced chloride current after 15 mins at -70 mV holding potential by two-microelectrode voltage clamp method
pEC50: −log10 of the molar value.
valueType: pEC50

| compound | measValue |
| --- | --- |
| C/C(=C/C#N)c1ccc(Cl)cc1Cl | 4.89 |
| CC1=C2[C@H](/C=C(\C)C(=O)O)CC[C@@H](C)[C@H]2CC1 | 4.72 |
| Cl/C(=C\n1cncn1)c1ccc(Cl)cc1Cl | 4.96 |
| C/C(C#N)=C\c1ccc(C)cc1Cl | 4.36 |
| CC(CC#N)c1ccc(Cl)cc1Cl (racemic) | 3.92 |

* * *

# testedSystem: GABA-A receptor; alpha-1/beta-2/gamma-2 (Homo sapiens, UniProt P14867+P18507+P47870)
# Sequence (P14867 whole entry): as the sequence (P14867 whole entry) above
# Sequence (P47870 whole entry): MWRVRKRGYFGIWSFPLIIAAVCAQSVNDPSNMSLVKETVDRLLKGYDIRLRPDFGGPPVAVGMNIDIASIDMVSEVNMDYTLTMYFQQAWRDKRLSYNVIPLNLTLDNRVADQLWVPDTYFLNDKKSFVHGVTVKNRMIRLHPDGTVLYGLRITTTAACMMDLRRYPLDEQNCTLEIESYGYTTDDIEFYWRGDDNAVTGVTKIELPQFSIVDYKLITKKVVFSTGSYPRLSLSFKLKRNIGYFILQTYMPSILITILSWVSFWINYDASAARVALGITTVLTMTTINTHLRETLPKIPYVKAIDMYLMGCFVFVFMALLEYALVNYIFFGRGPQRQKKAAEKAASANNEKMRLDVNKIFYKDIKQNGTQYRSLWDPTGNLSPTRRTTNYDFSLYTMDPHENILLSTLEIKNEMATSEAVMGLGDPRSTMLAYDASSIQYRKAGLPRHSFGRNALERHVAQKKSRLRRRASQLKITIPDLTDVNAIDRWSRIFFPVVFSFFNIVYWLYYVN
# Sequence (P18507 whole entry): as the sequence (P18507 whole entry) above
# runDescription: Positive allosteric modulation of GABA-A alpha1beta2gamma2S receptor (unknown origin) expressed in Xenopus laevis oocytes assessed as increase in GABA-induced chloride current after 15 mins at -70 mV holding potential by two-microelectrode voltage clamp method
pEC50: −log10 of the molar value.

| compound | pEC50 |
| --- | --- |
| C/C(=C(/C#N)C(N)=O)c1ccc(Cl)cc1Cl | 4.19 |
| C/C(=C(\C#N)C(N)=O)c1ccc(Cl)cc1Cl | 4.40 |
| C/C(=C/C#N)c1ccc(Cl)cc1Cl | 4.82 |
| CC(=CC#N)c1ccc(C)cc1Cl (mixture of isomers) | 4.39 |

* * *

# testedSystem: GABA A receptor alpha-1/beta-1/gamma-2 (Homo sapiens, UniProt P14867+P18505+P18507, S290N)
# runDescription: Positive allosteric modulation of GABA-A alpha1beta1(S290N)gamma2S mutant receptor (unknown origin) expressed in Xenopus laevis oocytes assessed as increase in GABA-induced chloride current after 15 mins at -70 mV holding potential by two-microelectrode voltage clamp method
pEC50: −log10 of the molar value.
valueType: pEC50

| compoundStructure | testedSystem | measValue |
| --- | --- | --- |
| C/C(=C/C#N)c1ccc(Cl)cc1Cl | GABA A receptor alpha-1/beta-1/gamma-2 (Homo sapiens, UniProt P14867+P18505+P18507, S290N) | 5.00 |

* * *

# testedSystem: GABA A receptor alpha-1/beta-1/gamma-2 (Homo sapiens, UniProt P14867+P18505+P18507)
# Sequence (P14867 whole entry): as the sequence (P14867 whole entry) above
# Sequence (P18507 whole entry): as the sequence (P18507 whole entry) above
# Sequence (P18505 whole entry): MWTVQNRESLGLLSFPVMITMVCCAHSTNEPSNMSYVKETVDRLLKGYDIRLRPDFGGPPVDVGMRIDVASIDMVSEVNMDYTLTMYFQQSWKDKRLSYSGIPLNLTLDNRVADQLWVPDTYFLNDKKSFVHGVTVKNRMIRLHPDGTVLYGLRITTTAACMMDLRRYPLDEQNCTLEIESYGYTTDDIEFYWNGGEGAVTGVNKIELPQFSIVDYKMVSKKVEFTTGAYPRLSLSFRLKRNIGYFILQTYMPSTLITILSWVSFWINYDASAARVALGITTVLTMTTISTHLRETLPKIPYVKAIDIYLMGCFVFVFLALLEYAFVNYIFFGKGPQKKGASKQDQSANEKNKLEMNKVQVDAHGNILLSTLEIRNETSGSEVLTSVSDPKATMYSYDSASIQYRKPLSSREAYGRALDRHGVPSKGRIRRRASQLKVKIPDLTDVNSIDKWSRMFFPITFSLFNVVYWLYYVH
# runDescription: Positive allosteric modulation of GABA-A alpha1beta1gamma2S receptor (unknown origin) expressed in Xenopus laevis oocytes assessed as increase in GABA-induced chloride current after 15 mins at -70 mV holding potential by two-microelectrode voltage clamp method
The compounds listed here are annotated with their EC50.
valueType: EC50 (µM)

| compound | valueType | measValue |
| --- | --- | --- |
| C/C(=C/C#N)c1ccc(Cl)cc1Cl | EC50 | 148 |
| CC(=CC#N)c1ccc(C)cc1Cl (mixture of isomers) | EC50 | 271 |

* * *

# testedSystem: GABA-A receptor; alpha-1/beta-3/gamma-2 (Homo sapiens, UniProt P14867+P18507+P28472)
# runDescription: Positive allosteric modulation of GABA-A alpha1beta3gamma2S receptor (unknown origin) expressed in Xenopus laevis oocytes assessed as increase in GABA-induced chloride current after 15 mins at -70 mV holding potential by two-microelectrode voltage clamp method
valueType: EC50 (µM)

| compound | testedSystem | valueType | measValue |
| --- | --- | --- | --- |
| CC(=CC#N)c1ccc(C)cc1Cl (mixture of isomers) | GABA-A receptor; alpha-1/beta-3/gamma-2 (Homo sapiens, UniProt P14867+P18507+P28472) | EC50 | 41 |
| C/C(=C(/C#N)C(N)=O)c1ccc(Cl)cc1Cl | GABA-A receptor; alpha-1/beta-3/gamma-2 (Homo sapiens, UniProt P14867+P18507+P28472) | EC50 | 55 |
| C/C(=C(\C#N)C(N)=O)c1ccc(Cl)cc1Cl | GABA-A receptor; alpha-1/beta-3/gamma-2 (Homo sapiens, UniProt P14867+P18507+P28472) | EC50 | 44 |
| C/C(C#N)=C\c1ccc(Cl)cc1Cl | GABA-A receptor; alpha-1/beta-3/gamma-2 (Homo sapiens, UniProt P14867+P18507+P28472) | EC50 | 91 |
| C/C(=C\C#N)c1ccc(Cl)cc1Cl | GABA-A receptor; alpha-1/beta-3/gamma-2 (Homo sapiens, UniProt P14867+P18507+P28472) | EC50 | 100 |
| CC(=C(C#N)C(N)=O)c1ccc(Cl)cc1Cl (mixture of isomers) | GABA-A receptor; alpha-1/beta-3/gamma-2 (Homo sapiens, UniProt P14867+P18507+P28472) | EC50 | 67 |
